PROCEDURE DETAILS: Metabolic stability in mice liver microsomes
MEASUREMENT SETUP: mice liver microsomes, 1 μM compound, 1 mM NADPH, 60 min
Below, each of the compounds is paired with its reported % Remaining at 60 min value.
Just the number please, in %, no unit attached.

Worked set:
Fc1ccc2c(c1)nn1cnc(NC3CCOCC3)cc21 [VKT-320] ... 37
N[C@H]1CC[C@H](Nc2cc3c4ccc(F)cc4nn3cn2)C1 [VKT-036] ... 82
CN(C)C1CCC(Nc2cc3c4ccc(F)cc4nn3cn2)CC1 (stereo not shown) [VKT-007] ... 54

In the following, a different compound is considered.
// query Sample N[C@@H]1CC[C@H](Nc2cc3c4ccc(F)cc4nn3cn2)C1 [VKT-034] — what was its % Remaining at 60 min?
// result 81
